Experiment: Therapeutic index, ratio of CC50 for human PBMC to EC50 for HIV1 92BR017 infected in human PBMC
Conditions: read-out: TI
observed.property: selectivity ratio

[in] Which selectivity ratio is listed for CC(C)(C)c1ccc(C(Cn2cccc(C(F)(F)F)c2=O)NC2Cc3ccccc3C2)cc1 (stereo unspecified) ?
[out] 142

====

Experiment: Therapeutic index, ratio of CC50 for human PBMC to EC50 for HIV1 WEJO infected in human PBMC
Settings: read-out: TI
observed.property: selectivity ratio
Output spec: single numeric token, no unit.

[in] Which selectivity ratio is listed for CC(C)(C)c1ccc(C(Cn2cccc(C(F)(F)F)c2=O)NC2Cc3ccccc3C2)cc1 (stereo unspecified) ?
[out] 11

====

Assay: Therapeutic index, ratio of CC50 for human MT2 cells to EC50 for HIV1 3B infected in human MT2 cells
Type: cell-based
Settings: read-out: TI
observed.property: selectivity ratio
Output spec: single numeric token, no unit.

[in] Which selectivity ratio is listed for CC(C)(C)c1ccc(C(Cn2cccc(C(F)(F)F)c2=O)NC2Cc3ccccc3C2)cc1 (stereo unspecified) ?
[out] 1120

====

Tested on: Human immunodeficiency virus 1
Assay: Antiviral activity HIV1 91US056 infected in human PBMC after 7 days by scintillation counting
Assay type: functional, organism-based
Conditions: Human immunodeficiency virus 1, 91US056, 168 h
observed.property: EC50

[in] Which EC50 is listed for CC(C)(C)c1ccc(C(Cn2cccc(C(F)(F)F)c2=O)NC2Cc3ccccc3C2)cc1 (stereo unspecified) ?
[out] > 17 µM

====

Experiment: Therapeutic index, ratio of CC50 for human PBMC to EC50 for HIV1 CMU06 infected in human PBMC
Details: read-out: TI
observed.property: selectivity ratio
Output spec: single numeric token, no unit.

[in] Which selectivity ratio is listed for CC(C)(C)c1ccc(C(Cn2cccc(C(F)(F)F)c2=O)NC2Cc3ccccc3C2)cc1 (stereo unspecified) ?
[out] 14

====

Test: Therapeutic index, ratio of CC50 for human PBMC to EC50 for HIV1 92BR030 infected in human PBMC
Conditions: read-out: TI
observed.property: selectivity ratio

[in] Which selectivity ratio is listed for CC(C)(C)c1ccc(C(Cn2cccc(C(F)(F)F)c2=O)NC2Cc3ccccc3C2)cc1 (stereo unspecified) ?
[out] < 1

====

Assay: Cytotoxicity against human CEM-SS cells after 6 days by XTT assay
Format: cell-based
observed.property: CC50 at 144 h (µM)
Output spec: scalar in µM, unitless text.

[in] Which CC50 at 144 h is listed for CC(C)(C)c1ccc(C(Cn2cccc(C(F)(F)F)c2=O)NC2Cc3ccccc3C2)cc1 (stereo unspecified) ?
[out] 20

====

Test system: Human immunodeficiency virus 1
Assay: Antiviral activity HIV1 92HT596 infected in human PBMC after 7 days by scintillation counting
Assay type: functional, organism-based
Conditions: Human immunodeficiency virus 1, 92HT596, 168 h
observed.property: pEC50
Would you please state pEC50, meaning minus log10 of the concentration in mol/L, as a bare number?

[in] Which pEC50 is listed for CC(C)(C)c1ccc(C(Cn2cccc(C(F)(F)F)c2=O)NC2Cc3ccccc3C2)cc1 (stereo unspecified) ?
[out] 6.49

====

Test: Therapeutic index, ratio of CC50 for human PBMC to EC50 for HIV1 3B infected in human PBMC
Conditions: read-out: TI
observed.property: selectivity ratio
Output spec: single numeric token, no unit.

[in] Which selectivity ratio is listed for CC(C)(C)c1ccc(C(Cn2cccc(C(F)(F)F)c2=O)NC2Cc3ccccc3C2)cc1 (stereo unspecified) ?
[out] 53

====

Test: Therapeutic index, ratio of CC50 for human PBMC to EC50 for HIV1 91US005 infected in human PBMC
Conditions: read-out: TI
observed.property: selectivity ratio

[in] Which selectivity ratio is listed for CC(C)(C)c1ccc(C(Cn2cccc(C(F)(F)F)c2=O)NC2Cc3ccccc3C2)cc1 (stereo unspecified) ?
[out] < 1

====

Tested on: Human immunodeficiency virus 1
Experiment: Antiviral activity HIV1 92TH014 infected in human PBMC after 7 days by scintillation counting
Assay type: functional, organism-based
Conditions: Human immunodeficiency virus 1, 92TH014, 168 h
observed.property: EC50

[in] Which EC50 is listed for CC(C)(C)c1ccc(C(Cn2cccc(C(F)(F)F)c2=O)NC2Cc3ccccc3C2)cc1 (stereo unspecified) ?
[out] > 17 µM

====

Test: Therapeutic index, ratio of CC50 for human PBMC to EC50 for HIV1 96USHIPS7 infected in human PBMC
Conditions: read-out: TI
observed.property: selectivity ratio

[in] Which selectivity ratio is listed for CC(C)(C)c1ccc(C(Cn2cccc(C(F)(F)F)c2=O)NC2Cc3ccccc3C2)cc1 (stereo unspecified) ?
[out] < 1

====

Assay: Therapeutic index, ratio of CC50 for human PM1 cells to EC50 for HIV1 NL4-3 infected in human PM1 cells
Type: cell-based
Conditions: read-out: TI
observed.property: selectivity ratio
Output spec: single numeric token, no unit.

[in] Which selectivity ratio is listed for CC(C)(C)c1ccc(C(Cn2cccc(C(F)(F)F)c2=O)NC2Cc3ccccc3C2)cc1 (stereo unspecified) ?
[out] 633

====

System: Human immunodeficiency virus 1
Experiment: Antiviral activity HIV1 WEJO infected in human PBMC after 7 days by scintillation counting
Format: functional, organism-based
Settings: Human immunodeficiency virus 1, WEJO, 168 h
observed.property: EC50

[in] Which EC50 is listed for CC(C)(C)c1ccc(C(Cn2cccc(C(F)(F)F)c2=O)NC2Cc3ccccc3C2)cc1 (stereo unspecified) ?
[out] 1.5 µM

====

Test: Therapeutic index, ratio of CC50 for human PBMC to EC50 for HIV1 93BR023 infected in human PBMC
Conditions: read-out: TI
observed.property: selectivity ratio

[in] Which selectivity ratio is listed for CC(C)(C)c1ccc(C(Cn2cccc(C(F)(F)F)c2=O)NC2Cc3ccccc3C2)cc1 (stereo unspecified) ?
[out] < 1

====

Test system: Human immunodeficiency virus 1
Experiment: Antiviral activity HIV1 92BR014 infected in human PBMC after 7 days by scintillation counting
Assay type: functional, organism-based
Conditions: Human immunodeficiency virus 1, 92BR014, 168 h
observed.property: EC50 (µM)
Output spec: scalar in µM, unitless text.

[in] Which EC50 is listed for CC(C)(C)c1ccc(C(Cn2cccc(C(F)(F)F)c2=O)NC2Cc3ccccc3C2)cc1 (stereo unspecified) ?
[out] 7

====

Experiment: Therapeutic index, ratio of CC50 for human PBMC to EC50 for HIV1 92HT599 infected in human PBMC
Details: read-out: TI
observed.property: selectivity ratio
Output spec: single numeric token, no unit.

[in] Which selectivity ratio is listed for CC(C)(C)c1ccc(C(Cn2cccc(C(F)(F)F)c2=O)NC2Cc3ccccc3C2)cc1 (stereo unspecified) ?
[out] 12

====

Assay: Therapeutic index, ratio of CC50 for human PBMC to EC50 for HIV1 92US072 infected in human PBMC
Conditions: read-out: TI
observed.property: selectivity ratio
Output spec: single numeric token, no unit.

[in] Which selectivity ratio is listed for CC(C)(C)c1ccc(C(Cn2cccc(C(F)(F)F)c2=O)NC2Cc3ccccc3C2)cc1 (stereo unspecified) ?
[out] 3400

====

Test: Therapeutic index, ratio of CC50 for human PBMC to EC50 for HIV1 93TH074 infected in human PBMC
Conditions: read-out: TI
observed.property: selectivity ratio
Output spec: single numeric token, no unit.

[in] Which selectivity ratio is listed for CC(C)(C)c1ccc(C(Cn2cccc(C(F)(F)F)c2=O)NC2Cc3ccccc3C2)cc1 (stereo unspecified) ?
[out] 142

====

System: Human immunodeficiency virus 1
Assay: Antiviral activity HIV1 93TH074 infected in human PBMC after 7 days by scintillation counting
Format: functional, organism-based
Conditions: Human immunodeficiency virus 1, 93TH074, 168 h
observed.property: pEC50
Would you please state pEC50, meaning minus log10 of the concentration in mol/L, as a bare number?

[in] Which pEC50 is listed for CC(C)(C)c1ccc(C(Cn2cccc(C(F)(F)F)c2=O)NC2Cc3ccccc3C2)cc1 (stereo unspecified) ?
[out] 6.92

====

Assay: Cytotoxicity against human PM1 cells after 5 days by XTT assay
Assay type: cell-based
observed.property: CC50 at 120 h

[in] Which CC50 at 120 h is listed for CC(C)(C)c1ccc(C(Cn2cccc(C(F)(F)F)c2=O)NC2Cc3ccccc3C2)cc1 (stereo unspecified) ?
[out] 19 µM

====

Experiment: Therapeutic index, ratio of CC50 for human PBMC to EC50 for HIV1 92BR014 infected in human PBMC
Conditions: read-out: TI
observed.property: selectivity ratio
Output spec: single numeric token, no unit.

[in] Which selectivity ratio is listed for CC(C)(C)c1ccc(C(Cn2cccc(C(F)(F)F)c2=O)NC2Cc3ccccc3C2)cc1 (stereo unspecified) ?
[out] 2

====

Tested on: Human immunodeficiency virus 1
Test: Antiviral activity HIV1 93BR023 infected in human PBMC after 7 days by scintillation counting
Type: functional, organism-based
Settings: Human immunodeficiency virus 1, 93BR023, 168 h
pEC50: −log10 of the molar value.
observed.property: pEC50

[in] Entry CC(C)(C)c1ccc(C(Cn2cccc(C(F)(F)F)c2=O)NC2Cc3ccccc3C2)cc1 (stereo unspecified) , system Human immunodeficiency virus 1: what pEC50 was measured?
[out] < 4.77

Data provenance is ChEMBL document CHEMBL1649302.
